These entries and their values trace back to PubChem BioAssay.

Parameter composite z-score: see the listing below.
target: Pro-neuregulin-1, membrane-bound isoform (Homo sapiens)
procedure.details: NRG1 binders on small-molecule microarrays, primary screen, psychiatric disease protein project, biochemical, small-molecule microarray, fluorescence 635/667 (AID 1075);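 note: score combines 667 nm spot fluorescence with signal to noise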
settings: NRG1 binding, 635 nm fluorescence, higher = more signal
# respond with the number and nothing more

Consider the worked cases shown below.
CCCCC(=C=CC[C@@H](O)c1ccccc1OCCO)CCO | 0.991
CC(C)(C)OC(=O)CC[C@]12N=C(c3ccc(OCCCO)cc3)O[C@H]1c1ccccc1N(CCS(=O)(=O)c1ccccc1)C2=O | 0.882
O=C1O[C@@H](c2ccccc2)[C@@H](c2ccccc2)N2[C@@H](c3ccccc3OCCO)[C@]3(C(=O)Nc4ccc(C#CC5=CCCCC5)cc43)[C@@H](C(=O)Nc3nc4ccccc4s3)[C@H]12 | 0.792
CC(C)(C)OC(=O)CC[C@]1(C(=O)NCC(O)CO)COC(c2ccc(OCCCO)cc2)=N1 (stereo partly drawn) | 1.97
C=C[C@H](COC(C)=O)N(C(=O)OC(C)(C)C)S(=O)(=O)c1ccc(Br)cc1 | -0.243
CN(C)C(=O)[C@@]1(Cc2ccccc2CN=[N+]=[N-])N=C(c2ccc(OCCCO)cc2)O[C@H]1c1ccccc1 | 1.17
COC(=O)[C@@]1(Cc2ccc(F)cc2)[C@H]2c3cc(C(=O)N4CCCC4)n(Cc4ccc(C)o4)c3C[C@H]2CN1C(=O)c1ccccc1 | 0.714
[N-]=[N+]=NCc1ccccc1[C@@H]1OC(c2ccc(OCCCO)cc2)=N[C@]1(Cc1ccccc1N=[N+]=[N-])C(=O)N1CCOCC1 | 1.77

Given the entry COc1ccc(CCNC(=O)[C@@]2(Sc3ccc(C)cc3)CC(=O)N(C3CCCCC3)[C@@H]2c2ccc(CO)cc2I)cc1 , report its measured composite z-score.
1.29
